All values here come from patent US12410161B2.

# TARGET OR TEST SYSTEM: IgE-Tb binding to soluble IgE receptor FcεRIα-Y131A-AF488 (Homo sapiens, UniProt P0DOX4, N265Q/N371Q)
# Construct: 86 nmoles of IgE-Fc(N265Q, N371Q) (Young et al., 1995)
# Sequence (P0DOX4 224-547 N265Q/N371Q limits assumed): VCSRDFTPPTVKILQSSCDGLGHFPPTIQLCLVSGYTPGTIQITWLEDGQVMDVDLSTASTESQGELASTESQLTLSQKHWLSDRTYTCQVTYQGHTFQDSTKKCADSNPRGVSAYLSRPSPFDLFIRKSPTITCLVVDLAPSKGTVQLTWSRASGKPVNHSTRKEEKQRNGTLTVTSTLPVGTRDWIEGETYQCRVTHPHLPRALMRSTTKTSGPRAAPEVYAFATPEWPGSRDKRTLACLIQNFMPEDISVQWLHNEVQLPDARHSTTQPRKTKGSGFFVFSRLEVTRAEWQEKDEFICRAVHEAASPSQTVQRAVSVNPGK
# ASSAY DETAILS: In vitro FRET assay of IgE-Tb binding to FcεRIα receptor (protocol for most examples, 2 hours incubation)
# CONDITIONS: 5 nM IgE-Tb, 25 nM FcεRIα-Y131A-AF488; incubated 2 hours at room temperature; read-out: FRET IC50 range
pIC50: −log10 of the molar value.
VALUE KIND: pIC50

[[record]]
compound = "Cc1nnc(-c2ccc(N[C@H]3CCc4cc5cnc(C6CC6)cc5c(S(=O)(=O)NCC(C)C)c4C3)cn2)o1 [Example 18]"
value_kind = "pIC50"
value_observed = "7.00 to 7.30"

[[record]]
compound = "CC(C)CNS(=O)(=O)c1c2c(cc3cnc(C4CC4)cc13)CCC(C(=O)NCC(C)(C)C)C2 (stereo not shown) [Example 5]"
value_kind = "pIC50"
value_observed = "7.00 to 7.30"


Ask | Consider the compound Cc1cc(-n2cnnc2NC2CCc3cc4cnc(C5CC5)cc4c(S(=O)(=O)NCC(C)C)c3C2)n(C)n1 (stereo not shown) [Example 12] and give its measured pIC50.
Reply | 6.00 to 7.00

Ask | Sample CC(C)CNS(=O)(=O)c1c2c(cc3cnc(C4CC4)cc13)CC(C(=O)NCc1ccccc1)CC2 (stereo not shown) [Example 7] — what was its pIC50?
Reply | 6.00 to 7.00

Ask | Can you share its pIC50? I mean this compound: CC(C)CNS(=O)(=O)c1c2c(cc3cnc(C4CC4)cc13)CC(C(=O)NCC(C)(C)C)CC2 (stereo not shown) [Example 6]
Reply | 5.70 to 7.00

Ask | # get_value(readout='pIC50', item= CC(C)CNS(=O)(=O)c1c2c(cc3cnc(C4CC4)cc13)CCC(C(=O)NCc1ccccc1)C2 (stereo not shown) [Example 8] )
Reply | 7.30 to 9.00

Ask | Tell me the measured pIC50 of CC(C)CNS(=O)(=O)c1c2c(cc3cnc(C4CC4)cc13)CCC(n1cnnc1NCC1CC1)C2 (stereo not shown) [Example 16] , please.
Reply | 7.30 to 9.00

* * *

# TARGET OR TEST SYSTEM: IgE-Tb binding to soluble IgE receptor FcεRIα-Y131A-AF488 (Homo sapiens, UniProt P0DOX4, N265Q/N371Q)
# Construct: 86 nmoles of IgE-Fc(N265Q, N371Q) (Young et al., 1995)
# ASSAY DETAILS: In vitro FRET assay of IgE-Tb binding to FcεRIα receptor (protocol for most examples, 2 hours incubation)
# CONDITIONS: 5 nM IgE-Tb, 25 nM FcεRIα-Y131A-AF488; incubated 2 hours at room temperature; read-out: FRET IC50 range
pIC50: −log10 of the molar value.
VALUE KIND: pIC50

Examples with their reported pIC50 follow.
[[record]]
compound = "CC(C)CNS(=O)(=O)c1c2c(cc3cnc(C4CC4)cc13)CCC(Nc1nncn1-c1cccnc1)C2 (centres unmarked)"
value_kind = "pIC50"
value_observed = "6.00 to 7.00"

[[record]]
compound = "CCNc1c(NC2CCc3cc4cnc(C5CC5)cc4c(S(=O)(=O)NCC(C)C)c3C2)c(=O)c1=O (centres unmarked)"
value_kind = "pIC50"
value_observed = "7.30 to 9.00"

[[record]]
compound = "Cc1cc(-n2cnnc2NC2CCc3c(cc4cnc(C5CC5)cc4c3S(=O)(=O)NCC(C)(C)F)C2)n(C)n1 (centres unmarked)"
value_kind = "pIC50"
value_observed = "5.70 to 7.00"


Ask | Look up pIC50 for this compound: Cc1cc(Nc2nncn2C2CCc3c(cc4cnc(C5CC5)cc4c3S(=O)(=O)NCC(C)(C)F)C2)n(C)n1 (centres unmarked)
Reply | 5.70 to 7.00

Ask | Recorded pIC50 of Cc1ccc(N/C(=N/C#N)NC2CCc3cc4cnc(C5CC5)cc4c(S(=O)(=O)NCC(C)(C)F)c3C2)cc1 (centres unmarked) , please.
Reply | 6.00 to 7.00

Ask | I am curious: what pIC50 value has been reported for Cc1nnc(-c2ccc(NC3CCc4cc5cnc(C6CC6)cc5c(S(=O)(=O)NCC(C)(C)F)c4C3)cn2)o1 (centres unmarked) ?
Reply | 6.00 to 7.00
